- tested system: T1, HLA-A*02:01 (human)
- T1 construct: Captured on streptavidin plates and detected with anti-b2m; also called peptide-receptive MHC molecules; MHC class I
- assay summary: UV-ligand exchange, anti-b2m ELISA; peptide exchange yield grade (+ >=10%, ++ >=20%, +++ >=50, ++++ >=75%)
endpoint: peptide exchange yield

See these solved cases before continuing.
SILRHVAEV 20 to 50%
ALWLPTDSATV 50 to 75%
YMLDIFHEV 20 to 50%
VAIGGVDGNVRL 20 to 50%
KLNDTYVNV 50 to 75%

[ask] Return value of peptide exchange yield for input LLSGDLIFL , no commentary.
[reply] 50 to 75%

[ask] Return value of peptide exchange yield for input STYGGGLSV , no commentary.
[reply] 50 to 75%

[ask] Return value of peptide exchange yield for input ASDPILYRPVAV , no commentary.
[reply] 50 to 75%
